# System: MDA-MB-435 melanoma
# assay_details: NCI-60 one-dose screen, 48 h
# applied_conditions: 10 µM unless noted
The panel holds about 83,000 compounds, 20% with a hit somewhere; the sample as a whole holds those more often. Active and inactive are the calls of the source. The calls were made as follows: active = growth percent below 10; inactive = the rest.
Return exactly one item of active, inactive

Illustrative cases are given below, each with its answer.
# compound, cat
rows = [
    ("COc1cc(/C=C/CO)cc(OC)c1O[C@@H]1O[C@H](CO)[C@@H](O)[C@H](O)[C@H]1O", "inactive"),
    ("COc1c(O)cc2oc3cc(O[C@@H]4OC(C)[C@@H](O)[C@H](O)C4O)c(CC=C(C)C)c(O)c3c(=O)c2c1CC=C(C)C (stereo not given in full)", "inactive"),
    ("COc1cc2c(cc1OC)C(Sc1ccc(Cl)cc1)c1c(nc(N)c(C#N)c1N)O2 (stereo not given)", "active"),
    ("O=C1NCc2ccc3c(-c4cccc(Cl)c4)c[nH]c3c21", "active"),
]

## Input In this assay, the call recorded for COc1ccc(/C(=N\O)c2cc(C)c(OC)c(C)c2)cc1O was what?
## Output active

---

# System: T-47D breast
# assay_details: NCI-60 one-dose screen, 48 h (100 = growth as untreated, 0 = no growth, -100 = all killed)
# applied_conditions: 10 µM unless noted
This is part of a sample that, as a whole, favours compounds with a hit. Of some 83,000 tested, about 20% had one in any assay.
Param label: returns Condition met when growth < 70%, returns Condition not met otherwise, including exact equality.

Illustrative cases are given below, each with its answer.
# molecule, cat
rows = [
    ("Cc1nnc(/N=C2\\NC(=O)/C(=C/c3ccc(N(C)C)cc3)S2)s1", "Condition not met"),
    ("O=C1C(=O)c2c(nc3ccc(Br)cn23)-c2ccccc21", "Condition met"),
    ("Sc1cccc2cccnc12", "Condition met"),
]

Let's switch to this molecule now.
## Input Regarding C[C@H](Oc1cc(-c2cnn(C3CCNCC3)c2)cnc1N)c1c(Cl)ccc(F)c1Cl , kindly confirm whether its growth is beneath 70%.
## Output Condition met

---

# System: SF-295 CNS
# assay_details: NCI-60 one-dose screen, 48 h
# applied_conditions: 10 µM unless noted
Compounds without any hit were thinned out: in the full panel of roughly 83,000, 20% have a hit. Activity calls are given as the source filed them. The calls were made as follows: active = growth percent below 10; inactive = the rest.
Return exactly one item of T for active, F for inactive

Illustrative cases are given below, each with its answer.
# compound, cat
data = [
    ("CCc1ccc(OCc2ccccc2C(=O)Nc2ccc3nc(C)cc(N)c3c2)cc1", "T"),
    ("CC(/C=C/c1ccccc1)=N/NC(=O)c1ccncc1", "F"),
    ("O=C1CCC23OC(C(O)c4ccccc4N12)C1C(Br)=NOC13 (stereo not given)", "F"),
]

## Input In this assay, the call recorded for COc1ccc(-c2cc(-c3nnc(SCC(=O)Nc4ccc(/C(C)=N\O)cc4)o3)c3ccccc3n2)cc1 was what?
## Output F

## Input In this assay, the call recorded for O=Cc1[nH]c(Sc2ccccc2)c2ccccc12 was what?
## Output F

## Input In this assay, the call recorded for COc1ccc2nc3nc4ccc[nH]c4cc3c2c1 was what?
## Output F

## Input In this assay, the call recorded for CCCS(=O)(=O)Nc1ccc(F)c(C(=O)c2c[nH]c3ncc(-c4ccc(OCCCC5CCCCN5)nc4)cc23)c1F (stereo not given) was what?
## Output F

## Input In this assay, the call recorded for [2H]c1cc2c(c([2H])c1F)/C(=C/c1[nH]c(C)c(C(=O)NCCN(CC)CC)c1C)C(=O)N2 was what?
## Output F

## Input In this assay, the call recorded for COc1cc(C2=NN(c3ccccc3)C(c3cccc(Nc4ccnc5cc(C(F)(F)F)ccc45)c3)C2)cc(OC)c1OC (stereo not given) was what?
## Output F

## Input In this assay, the call recorded for O=C(Nc1ccc2ncnc(Nc3cccc(C(F)(F)F)c3)c2c1)c1cccs1 was what?
## Output F

---

# Tested on: EKVX NSCLC
# assay_details: NCI-60 one-dose screen, 48 h
# applied_conditions: 10 µM unless noted
The panel holds about 83,000 compounds, 20% with a hit somewhere; the sample as a whole holds those more often. The source made the active and inactive calls. Rule for the calls: active = growth percent below 10; inactive = the rest.
Return exactly one item of 1 (active), -1 (inactive)

Illustrative cases are given below, each with its answer.
# compound, cat
rows = [
    ("Cc1ccc(CS/C(=C\\c2ccc([N+](=O)[O-])cc2)C(=O)c2ccc(F)cc2)cc1", -1),
    ("COc1cccc(NC(=O)Nc2ccc(Nc3ncnc4[nH]c(C)c(C)c34)cc2)c1", -1),
    ("CCCCCCCCCCCCCC1=NCC[N+]1(CCO)Cc1ccccc1 (stereo not given)", 1),
]

Let's switch to this compound now.
## Input In this assay, the call recorded for O=C(Nc1cc(=O)[nH]c(=O)[nH]1)C(Cl)Cl was what?
## Output -1

---

# Tested on: UACC-257 melanoma
# assay_details: NCI-60 one-dose screen, 48 h (100 = growth as untreated, 0 = no growth, -100 = all killed)
# applied_conditions: 10 µM unless noted
The panel holds about 83,000 compounds, 20% with a hit somewhere; the sample as a whole holds those more often. Active and inactive are the calls of the source. How the source made its calls: active means growth percent below 10; inactive means the rest.
assay_endpoint: growth

// solved cases for growth follow
# compound, assayed_system, growth
data = [
    ("C=C(C)[C@@H]1CC[C@]2(C(=O)O)CC[C@]3(C)[C@H](CC[C@@H]4[C@@]5(C)C[C@@H](CC#Cc6ccccc6)C(=O)C(C)(C)[C@@H]5CC[C@]43C)[C@@H]12", "UACC-257 melanoma", "60.5% (inactive)"),
    ("CCCS(=O)(=O)Nc1ccc(F)c(C(=O)c2c[nH]c3ncc(-c4ccc(OCCCC5CCCCN5)nc4)cc23)c1F (stereo not given)", "UACC-257 melanoma", "-17% (active)"),
    ("O=C1Nc2ccccc2C12C=C(c1ccccc1)Nc1c2c(-c2ccccc2)nn1-c1ccccc1 (stereo not given)", "UACC-257 melanoma", "88.7% (inactive)"),
    ("OCCNc1nc(NCCO)nc(Nc2ccc(C3=NN(c4cc(Cl)cc(Cl)c4)C(c4ccc(Cl)cc4)C3)cc2)n1 (stereo not given)", "UACC-257 melanoma", "48.4% (inactive)"),
    ("O=C1NN(c2ccccc2)C(c2ccc3c(c2)OCO3)N2CCC[C@@H]12 (stereo not given in full)", "UACC-257 melanoma", "99.2% (inactive)"),
    ("COc1cc2cc(c1Cl)N(C)C(=O)C[C@H](OC(=O)[C@H](C)N(C)C(=O)CCS)C[C@]1(C)O[C@H]1[C@H](C)[C@@H]1C[C@@](O)(NC(=O)O1)[C@H](OC)/C=C/C=C(\\C)C2", "UACC-257 melanoma", "69.3% (inactive)"),
    ("C=C1C(=O)O[C@H]2[C@H]1CC/C(COC(=O)c1cn(C)c3ccccc13)=C\\CC[C@@]1(C)O[C@@H]21", "UACC-257 melanoma", "-56% (active)"),
    ("CC(=O)OCC1SC(OC(C)=O)C(NC(=O)/C=C/CCl)C(OC(C)=O)C1OC(C)=O (stereo not given)", "UACC-257 melanoma", "83% (inactive)"),
]

## Input Recorded growth of Nc1ccccc1NC(=O)c1ccc(CSc2nc(N3CCOCC3)c3cccn3n2)cc1 , please.
## Output -3.3% (active)

## Input Recorded growth of NC(=O)c1ccc2nc3c(n2c1)C(=O)C(=O)c1ccccc1-3 , please.
## Output -98.3% (active)

## Input Recorded growth of COc1ccc(-c2[nH]c3ccc(OC)cc3c2C=C(C#N)C#N)cc1 , please.
## Output 60.2% (inactive)

## Input Recorded growth of O=C(Nc1ccc(N=Cc2ccccc2O)cc1)NC1C=c2ccccc2=CC1 (stereo not given) , please.
## Output 91.6% (inactive)

## Input Recorded growth of N#Cc1c(-c2ccc(Cl)cc2)cc(-c2cc3ccccc3o2)nc1SCC(=O)c1ccc(Cl)cc1 , please.
## Output 112% (inactive)

## Input Recorded growth of O=C(O)CCNC1CCCCC1 , please.
## Output 20.9% (inactive)

## Input Recorded growth of C=C(C)[C@@H]1CC[C@]2(C(=O)O)CC[C@]3(C)[C@H](CC[C@@H]4[C@@]5(C)C[C@@H](CC#Cc6ccccc6C)C(=O)C(C)(C)[C@@H]5CC[C@]43C)[C@@H]12 , please.
## Output 39.9% (inactive)

## Input Recorded growth of C#C[C@@]1(O)[C@@H](CO)O[C@@H](n2cc(Br)c3c(N)ncnc32)[C@@H]1O , please.
## Output 57.5% (inactive)

## Input Recorded growth of COc1cc(NC(=O)COc2cc(C)nc3ccc(OC)cc23)cc(OC)c1 , please.
## Output 82% (inactive)

## Input Recorded growth of CC1CCN(CCCCCOc2ccc3oc4cc(Cl)ccc4c(=O)c3c2)CC1 , please.
## Output -38.8% (active)

## Input Recorded growth of O=C(Nc1ccccc1)NS(=O)(=O)c1c[nH]c(=S)[nH]c1=O , please.
## Output 92.5% (inactive)

## Input Recorded growth of COC(=O)c1ccc2c(c1)n(Cc1ccc3ccccc3c1)c[n+]2Cc1ccc2ccccc2c1 , please.
## Output 42% (inactive)

## Input Recorded growth of COc1cc(/C=C/C(=O)/C=C/c2cc3ccc(Cl)cc3[nH]c2=O)ccc1O , please.
## Output 90.8% (inactive)

## Input Recorded growth of CCOC(=O)NCCc1nc2c([nH]1)c(=O)n(C)c(=O)n2C , please.
## Output 113% (inactive)

## Input Recorded growth of Cc1nc(C)c(C)nc1C , please.
## Output 88.1% (inactive)

## Input Recorded growth of Cc1cc(C)cc(Nc2nccc(-c3c(-c4ccc(F)cc4)ncn3C3CCNCC3)n2)c1 , please.
## Output -50.6% (active)

## Input Recorded growth of COc1ccc(Sc2[nH]c(C(C)=O)c3ccccc23)cc1 , please.
## Output 84.1% (inactive)

## Input Recorded growth of CCC[S@](=O)c1ccc2nc(NC(=O)OC)[nH]c2c1 , please.
## Output 69.3% (inactive)
